Molecular target: T1, Recombinant human MASP1 enzyme (fragment corresponding to amino acids 297-699, C-terminal His Tag) (human, UniProt P48740 297-699)
T1 sequence: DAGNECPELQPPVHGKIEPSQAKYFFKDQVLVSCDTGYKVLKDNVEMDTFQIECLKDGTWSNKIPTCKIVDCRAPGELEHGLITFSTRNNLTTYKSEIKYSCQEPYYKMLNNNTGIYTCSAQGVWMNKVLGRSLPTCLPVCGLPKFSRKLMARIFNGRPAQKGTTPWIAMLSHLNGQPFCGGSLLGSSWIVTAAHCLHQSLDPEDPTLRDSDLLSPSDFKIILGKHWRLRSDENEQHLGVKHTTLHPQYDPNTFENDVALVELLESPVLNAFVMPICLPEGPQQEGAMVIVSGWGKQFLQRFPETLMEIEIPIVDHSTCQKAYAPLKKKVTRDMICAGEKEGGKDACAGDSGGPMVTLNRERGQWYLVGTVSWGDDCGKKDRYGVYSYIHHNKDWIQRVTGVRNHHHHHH
Assay: cell-based or functional assay
Bridge positions count the residues as written; N and C are the ends. Square brackets hold non-standard residues; d marks the D form. Primed or numbered codes have the meaning given here. Ends that are not written are not given here. * marks the point of attachment. Tranexamic″ = tranexamic acid, NC[C@H]1CC[C@@H](C(=O)*)CC1; Oic = O=C(O)[C@@H]1C[C@@H]2CCCC[C@@H]2N1; tBuAla = CC(C)(C)C[C@H](N)C(=O)O; NMeC = CN[C@@H](CS)C(=O)O
property-measured: human MASP1 IC50
Field note: include the unit after the figure.

{Tranexamic″}-ICSRS[tBuAla]PPI[NMeC]I-NH2 (disulfide 2-10; SMILES CC[C@H](C)[C@H](NC(=O)[C@@H]1CSSC[C@H](NC(=O)[C@@H](NC(=O)[C@H]2CC[C@@H](CN)CC2)[C@@H](C)CC)C(=O)N[C@@H](CO)C(=O)N[C@@H](CCCNC(=N)N)C(=O)N[C@@H](CO)C(=O)N[C@@H](CC(C)(C)C)C(=O)N2CCC[C@H]2C(=O)N2CCC[C@H]2C(=O)N[C@@H]([C@@H](C)CC)C(=O)N1C)C(N)=O) [(Tranexamic)-IC+SRS-((tBu)A)-PPI-((N-Me)C)+I-NH2]
15 nM

Field: next binder
Request the reported human MASP1 IC50 associated with AICSRS[tBuAla]P[Oic]I[NMeC]I-NH2 (disulfide 3-11; N-terminus assumed; SMILES CC[C@H](C)[C@H](NC(=O)[C@@H]1CSSC[C@H](NC(=O)[C@@H](NC(=O)[C@H](C)N)[C@@H](C)CC)C(=O)N[C@@H](CO)C(=O)N[C@@H](CCCNC(=N)N)C(=O)N[C@@H](CO)C(=O)N[C@@H](CC(C)(C)C)C(=O)N2CCC[C@H]2C(=O)N2[C@@H](C[C@@H]3CCCC[C@@H]32)C(=O)N[C@@H]([C@@H](C)CC)C(=O)N1C)C(N)=O) [AIC+SRS-((tBu)A)-P-(Oic)-I-((N-Me)C)+I-NH2]
5.2 nM
